Molecular target: Estrogen receptor (Rattus norvegicus)
Assay: DSSTox (KIERBL) EPA Estrogen Receptor Ki Binding Study (Laws et al.) Database
Settings: Rat uterine cytosol ER, 3H-estradiol competitive binding; TestedRange_microM: 20-70
TEST_READOUT: Potency

Query: Bench note: what Potency did CC(c1ccc(O)cc1)(c1ccc(O)cc1)c1ccc(O)cc1 show?
Result: 18.3 µM

Value source: PubChem BioAssay AID1576
